system: Uterine Eosinophil Peroxidase (EPO); assay: Uterine Eosinophil Peroxidase (EPO) Assay / eosinophil infiltration into the uterus of ovariectomized rats; type: in vivo, female Sprague Dawley rats; parameters: unit not given here; conditions: OVX rats, oral, 10.0 mg/kg daily for 4 days
Structures can show the parent of a compound that is named as a salt.
Give rule met when the value for Uterine EPO (V. max) is at least 5. Give rule not met when it is less.

>  <compound>
COc1ccc2c(c1)CCC(C1CCCCC1)=C2C(=O)c1ccc(OCCN2CCCCC2)cc1

>  <tgt>
Uterine Eosinophil Peroxidase (EPO)

>  <group.label>
rule met

$$$$

# check: Uterine EPO (V. max) of Oc1ccc2c(Cc3ccc(OCCN4CCCCC4)cc3)c(C3CCCCC3)ccc2c1 [Example 6, hydrochloride] is greater than or equal to 5
rule not met

# check: Uterine EPO (V. max) of Oc1ccc2c(Cc3ccc(OCCN4CCCCC4)cc3)c([C@H]3CC[C@H](O)CC3)ccc2c1 [Example 2, hydrochloride] is greater than or equal to 5
rule not met

# check: Uterine EPO (V. max) of `COc1ccc2c(Cc3ccc(OCCN4CCCCC4)cc3)c(C3CCCCC3)ccc2c1` is greater than or equal to 5
rule met

# check: Uterine EPO (V. max) of `CCc1ccc2cc(O)ccc2c1Cc1ccc(OCCN2CCCCC2)cc1` is greater than or equal to 5
rule met
